- tested-on: Adenosine receptors; A1 & A2a (Rattus norvegicus) (UniProt P25099+P30543)
- Sequence (P25099 whole entry, looked up): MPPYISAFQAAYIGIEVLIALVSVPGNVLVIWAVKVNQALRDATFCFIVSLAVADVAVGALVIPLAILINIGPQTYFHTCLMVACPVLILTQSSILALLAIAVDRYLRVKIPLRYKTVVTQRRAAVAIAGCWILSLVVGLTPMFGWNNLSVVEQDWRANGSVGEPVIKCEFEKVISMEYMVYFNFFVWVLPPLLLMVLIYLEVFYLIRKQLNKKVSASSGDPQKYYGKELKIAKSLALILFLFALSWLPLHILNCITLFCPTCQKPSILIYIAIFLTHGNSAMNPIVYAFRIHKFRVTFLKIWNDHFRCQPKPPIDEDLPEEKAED
- Sequence (P30543 whole entry, looked up): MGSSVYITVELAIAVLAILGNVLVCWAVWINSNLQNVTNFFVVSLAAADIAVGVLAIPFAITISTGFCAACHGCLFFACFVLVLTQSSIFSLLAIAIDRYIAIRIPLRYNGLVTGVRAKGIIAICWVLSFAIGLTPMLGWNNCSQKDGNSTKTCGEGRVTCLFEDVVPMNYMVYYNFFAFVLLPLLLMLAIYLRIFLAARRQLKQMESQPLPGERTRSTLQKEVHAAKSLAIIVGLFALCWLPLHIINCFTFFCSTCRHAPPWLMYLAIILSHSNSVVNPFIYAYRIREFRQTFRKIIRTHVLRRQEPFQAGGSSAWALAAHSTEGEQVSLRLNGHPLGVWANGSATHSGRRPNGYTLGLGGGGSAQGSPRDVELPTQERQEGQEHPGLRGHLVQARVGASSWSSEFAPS
- experiment: Ratio of Binding Constants for adenosine A2A and A1 receptors
- Format: protein assay
test-readout: Ratio

molecule	tested-on	qualifier-operator	measured
CCC(Sc1nc(SC)c2cnn(-c3ccccc3)c2n1)C(N)=O (stereo not drawn)	Adenosine receptors; A1 & A2a (Rattus norvegicus) (UniProt P25099+P30543)	=	95
CCCC(Sc1nc(S)c2cnn(-c3ccccc3)c2n1)C(N)=O (stereo not drawn)	Adenosine receptors; A1 & A2a (Rattus norvegicus) (UniProt P25099+P30543)	=	79
CCCCC(Sc1nc(NC)c2cnn(-c3ccccc3)c2n1)C(N)=O (stereo not drawn)	Adenosine receptors; A1 & A2a (Rattus norvegicus) (UniProt P25099+P30543)	=	332
CCCC(Sc1nc(N)c2cnn(-c3ccccc3)c2n1)C(N)=O (stereo not drawn)	Adenosine receptors; A1 & A2a (Rattus norvegicus) (UniProt P25099+P30543)	=	33
CSc1nc(SC(C(N)=O)C(C)C)nc2c1cnn2-c1ccccc1 (stereo not drawn)	Adenosine receptors; A1 & A2a (Rattus norvegicus) (UniProt P25099+P30543)	>	1300
CCCCC(Sc1nc(N)c2cnn(-c3ccccc3)c2n1)C(N)=O (stereo not drawn)	Adenosine receptors; A1 & A2a (Rattus norvegicus) (UniProt P25099+P30543)	=	94
CCCCC(Sc1nc(SC)c2cnn(-c3ccccc3)c2n1)C(N)=O (stereo not drawn)	Adenosine receptors; A1 & A2a (Rattus norvegicus) (UniProt P25099+P30543)	>	5900
CC(C)C(Sc1nc(S)c2cnn(-c3ccccc3)c2n1)C(N)=O (stereo not drawn)	Adenosine receptors; A1 & A2a (Rattus norvegicus) (UniProt P25099+P30543)	>	78
CC(C)C(Sc1nc(N)c2cnn(-c3ccccc3)c2n1)C(N)=O (stereo not drawn)	Adenosine receptors; A1 & A2a (Rattus norvegicus) (UniProt P25099+P30543)	=	54
CCCCC(Sc1nc(S)c2cnn(-c3ccccc3)c2n1)C(N)=O (stereo not drawn)	Adenosine receptors; A1 & A2a (Rattus norvegicus) (UniProt P25099+P30543)	>	270
CCC(Sc1nc(S)c2cnn(-c3ccccc3)c2n1)C(N)=O (stereo not drawn)	Adenosine receptors; A1 & A2a (Rattus norvegicus) (UniProt P25099+P30543)	=	56
CCCC(Sc1nc(SC)c2cnn(-c3ccccc3)c2n1)C(N)=O (stereo not drawn)	Adenosine receptors; A1 & A2a (Rattus norvegicus) (UniProt P25099+P30543)	=	580
CCC(Sc1nc(N)c2cnn(-c3ccccc3)c2n1)C(N)=O (stereo not drawn)	Adenosine receptors; A1 & A2a (Rattus norvegicus) (UniProt P25099+P30543)	=	29

* * *

Reported values: Ki for Adenosine receptor A2a (Rattus norvegicus), one per item.
test-readout: Ki

compound	test-readout	measured
CCCC(Sc1nc2c(cnn2-c2ccccc2)c(=S)[nH]1)C(N)=O (centres undefined)	Ki	4450 nM
CC(C)C(Sc1nc(N)c2cnn(-c3ccccc3)c2n1)C(N)=O (centres undefined)	Ki	147 nM
CCC(Sc1nc2c(cnn2-c2ccccc2)c(=S)[nH]1)C(N)=O (centres undefined)	Ki	8750 nM
CCCCC(Sc1nc(NC)c2cnn(-c3ccccc3)c2n1)C(N)=O (centres undefined)	Ki	247 nM

* * *

- tested-on: Adenosine receptor A1 (Rattus norvegicus, UniProt P25099)
- Sequence (P25099 whole entry): as the sequence (P25099 whole entry, looked up) above
- experiment: Displacement of [3H]N6-PIA from Adenosine A1 receptor from rat whole brain
pKi: −log10 of the molar value.
pKi reference
test-readout: pKi

compound	measured
CCCCC(Sc1nc(S)c2cnn(-c3ccccc3)c2n1)C(N)=O (stereo not drawn)	7.43
CCC(Sc1nc(N)c2cnn(-c3ccccc3)c2n1)C(N)=O (stereo not drawn)	8.81
CC(C)C(Sc1nc2c(cnn2-c2ccccc2)c(=S)[nH]1)C(N)=O (stereo not drawn)	6.59
CCCCC(Sc1nc(NC)c2cnn(-c3ccccc3)c2n1)C(N)=O (stereo not drawn)	9.13
CC(C)C(Sc1nc(N)c2cnn(-c3ccccc3)c2n1)C(N)=O (stereo not drawn)	8.56
CCCC(Sc1nc2c(cnn2-c2ccccc2)c(=S)[nH]1)C(N)=O (stereo not drawn)	7.25
CCCCC(Sc1nc(SC)c2cnn(-c3ccccc3)c2n1)C(N)=O (stereo not drawn)	8.17
CCCC(Sc1nc(N)c2cnn(-c3ccccc3)c2n1)C(N)=O (stereo not drawn)	8.97
CCCCC(Sc1nc(N)c2cnn(-c3ccccc3)c2n1)C(N)=O (stereo not drawn)	9.03
CCC(Sc1nc(SC)c2cnn(-c3ccccc3)c2n1)C(N)=O (stereo not drawn)	8.08
CSc1nc(SC(C(N)=O)C(C)C)nc2c1cnn2-c1ccccc1 (stereo not drawn)	7.80
CCC(Sc1nc2c(cnn2-c2ccccc2)c(=S)[nH]1)C(N)=O (stereo not drawn)	6.81
CCCC(Sc1nc(SC)c2cnn(-c3ccccc3)c2n1)C(N)=O (stereo not drawn)	8.12

Values compiled from ChEMBL document CHEMBL1129442.
